# ASSAY_NAME: reduced mouse 2C T cell binding to pMHC/ICAM-1 vesicles – MLPCN validation set, flow cytometry, LFA-1/ICAM-1 modulator project, pilot screen (AID 2523)
# MEASUREMENT_PARAMETERS: 2C mouse CD8+ T cells, at 7 µM, stronger effect = lower value; measured here: CD8+/vesicle+ event percentage
ENDPOINT: double positive events (%)

{"COMPOUND": "O=C(NCCc1c[nH]c2ccccc12)OCCSS(=O)(=O)O", "MEAS_VALUE": 66.8}
{"COMPOUND": "NS(=O)(=O)c1cc(C2(O)NC(=O)c3ccccc32)ccc1Cl (stereo not drawn)", "MEAS_VALUE": 58.2}
{"COMPOUND": "O=C(Nc1ccc(F)c([N+](=O)[O-])c1)c1ccc2c(c1)OCCO2", "MEAS_VALUE": 63}
{"COMPOUND": "Cc1[nH]c2ccccc2c1C(=O)C(=O)NCc1ccco1", "MEAS_VALUE": 62}
{"COMPOUND": "Cc1ccc(NC(=O)CSc2nc(O)c(Cc3ccccc3)c(=O)n2-c2ccccc2)cc1", "MEAS_VALUE": 65}
{"COMPOUND": "CCN1C(=O)C(CC(=O)Nc2ccc(OC)cc2)N(CCc2ccc(F)cc2)C1=S (stereo not drawn)", "MEAS_VALUE": 60.7}
{"COMPOUND": "O=C(/C=C/c1ccc(F)cc1)NC(=S)N1CCCCC1c1cccnc1 (stereo not drawn)", "MEAS_VALUE": 56.7}
{"COMPOUND": "O=C(NCCC(c1ccccc1)c1ccco1)c1cccs1 (stereo not drawn)", "MEAS_VALUE": 57.6}

---

# ASSAY_NAME: cytosolic pH regulators acting via V-ATPase – S. cerevisiae, pHLuorin, HTS validation (AID 504600);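 also: plate controls were DMSO for no effect and reference compound for full effect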
# MEASUREMENT_PARAMETERS: V-ATPase proton transport, at 10 µM, stronger effect = higher value
Activity calls are given as the source filed them. No stated cut-off is given here; in the data, active means response above about 15%; inactive means the rest.
# response annotations

{"MOLECULE": "CCn1c(C)cc2c(c1=O)C(c1ccccc1)C(C(=O)OC)=C(N)O2 (stereo not given)", "response": "-16.3% (inactive)"}
{"MOLECULE": "COc1cccc2c(O)cc(=O)n(C)c12", "response": "-5.16% (inactive)"}
{"MOLECULE": "CC(=O)NC(NC(=S)N1CCCCCC1)C(Cl)(Cl)Cl (stereo not given)", "response": "0.33% (inactive)"}
{"MOLECULE": "COc1cc(OC)c(-c2nc3cnccc3n2C)cc1OC", "response": "4.97% (inactive)"}
{"MOLECULE": "CC(C)C(CCN1C(=O)CCC1=O)C1CCOC(C)(C)C1 (stereo not given)", "response": "-0.12% (inactive)"}
{"MOLECULE": "COc1cc(C(=O)Nc2cccc(-c3nnc(-c4ccco4)o3)c2)ccc1OC(C)=O", "response": "2.66% (inactive)"}
{"MOLECULE": "CCOC(=O)C(NC(=O)CCC(=O)Nc1ccc(S(N)(=O)=O)cc1)C(O)c1ccccc1 (stereo not given)", "response": "-6.43% (inactive)"}
{"MOLECULE": "Cc1cccc(C)c1NC(=O)C1CCCCN1C (stereo not given)", "response": "0.17% (inactive)"}
{"MOLECULE": "COc1ccc(O)c(C2=Nc3ccccc3N=C(c3ccccc3)C2)c1", "response": "-3.39% (inactive)"}
{"MOLECULE": "O=C(CN1CC[n+]2c(-c3cccs3)csc21)c1ccc(Br)cc1", "response": "1.44% (inactive)"}
{"MOLECULE": "COc1cc(OC)c2c(C)c(Cl)c(=O)oc2c1", "response": "1.24% (inactive)"}
{"MOLECULE": "CCCCCCCC(=O)OCC(=O)[C@@]1(O)CC[C@H]2[C@@H]3CCC4=CC(=O)CC[C@]4(C)[C@H]3[C@@H](O)C[C@@]21C", "response": "10.5% (inactive)"}
{"MOLECULE": "Cc1ccc([N+](=O)[O-])cc1NC1OC(CO)C(O)C1O (stereo not given)", "response": "2.59% (inactive)"}
{"MOLECULE": "NC(=O)c1ncn([C@@H]2O[C@H](CO)[C@@H](O)[C@H]2O)c1O", "response": "-4.18% (inactive)"}
{"MOLECULE": "O=C(Cc1c[nH]c2ccccc12)OCCOC(=O)Cc1c[nH]c2ccccc12", "response": "1.88% (inactive)"}
{"MOLECULE": "O=C1ON=C(c2ccc(Cl)cc2)/C1=C/c1ccc(O)cc1", "response": "-1.63% (inactive)"}
{"MOLECULE": "CCc1cc(=O)oc2cc(OCc3nn[nH]n3)ccc12", "response": "-0.49% (inactive)"}
{"MOLECULE": "CCOC(=O)c1cccc(P(C)(C)=O)c1", "response": "-2.31% (inactive)"}
{"MOLECULE": "COC(=O)CSc1nc2ccc(N)cc2s1", "response": "-1.65% (inactive)"}
{"MOLECULE": "Cc1cccc(-c2ncc(CN3CCN(CC(C)C)C(CCO)C3)cn2)c1 (stereo not given)", "response": "3.08% (inactive)"}

---

GFP response vs DMSO by entry:
# ASSAY_NAME: TOR pathway GLN3 branch reporter MEP2-GFP changes – S. cerevisiae, multiplex flow cytometry, primary screen (AID 1867);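 also: median GFP channel fluorescence of barcode-gated MEP2-GFP cells measured by flow cytometry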
# MEASUREMENT_PARAMETERS: S. cerevisiae MEP2-GFP strain, 3 h, at 10 µM, stronger effect = higher value, 100% means same as DMSO wells
Records with an inconclusive call do not appear.

{"COMPOUND": "CC1(CC(=O)Nc2ccccc2)NC(=S)N(c2ccccc2)N1 (stereo not given)", "GFP response vs DMSO, %": 111}
{"COMPOUND": "CC(=O)c1cc2c(cc1NC(=O)c1ccco1)OCCO2", "GFP response vs DMSO, %": 107}
{"COMPOUND": "O=Cc1ccc(O)c(O)c1", "GFP response vs DMSO, %": 99.7}
{"COMPOUND": "O=C(COc1ccc2c(-c3ccccc3)cc(=O)oc2c1)NCc1cccs1", "GFP response vs DMSO, %": 96.6}
{"COMPOUND": "CCCCCCCCNC(C)C(O)c1ccc(SC(C)C)cc1 (stereo not given)", "GFP response vs DMSO, %": 130}
{"COMPOUND": "CCCCCCC(=O)N(O)C1CC(=O)N(Cc2ccccc2)C1=O (stereo not given)", "GFP response vs DMSO, %": 101}
{"COMPOUND": "CCN(CCCc1ccccc1)CCCc1ccccc1", "GFP response vs DMSO, %": 103}
{"COMPOUND": "CSCCC(NC(=O)OC(C)(C)C)C(=O)Oc1ccc2c(=O)c(-c3ccc4c(c3)OCCO4)coc2c1 (stereo not given)", "GFP response vs DMSO, %": 107}
{"COMPOUND": "O=C1C(Cc2c[nH]c3ccccc23)NC(=S)N1Cc1ccccc1 (stereo not given)", "GFP response vs DMSO, %": 102}
{"COMPOUND": "Cc1ccc2[nH]c(=O)c(Cc3ccccc3)c(O)c2c1", "GFP response vs DMSO, %": 105}
{"COMPOUND": "O=C(CNC(=O)OCc1ccccc1)Oc1cc2oc(=O)cc(-c3ccccc3)c2cc1Cl", "GFP response vs DMSO, %": 107}
{"COMPOUND": "COc1ccc(OCc2cccc(C(=O)NN)c2)cc1", "GFP response vs DMSO, %": 97.4}
{"COMPOUND": "COc1ccc(NC(=O)Nc2ccc(C(C)C)cc2)cc1", "GFP response vs DMSO, %": 103}
{"COMPOUND": "Cc1ccc(-c2nnc(-c3ccc4c(c3)OCO4)o2)cc1", "GFP response vs DMSO, %": 106}
{"COMPOUND": "O=C(O)C1CSC(c2ccc3c(c2)OCO3)N1 (stereo not given)", "GFP response vs DMSO, %": 121}
{"COMPOUND": "c1coc(-c2nnc3n2C2(CCCC2)Cc2ccccc2-3)c1", "GFP response vs DMSO, %": 114}
{"COMPOUND": "COc1cc(NC(=S)NN2CCN(C)CC2)cc(OC)c1OC", "GFP response vs DMSO, %": 108}
{"COMPOUND": "CC(C)COC(=O)C1C(=O)CC(C)(O)C(C(=O)OCC(C)C)C1c1cccnc1 (stereo not given)", "GFP response vs DMSO, %": 118}
{"COMPOUND": "CC1Cc2ccccc2N1NC(=O)c1ccc(Cl)c(S(N)(=O)=O)c1 (stereo not given)", "GFP response vs DMSO, %": 103}
{"COMPOUND": "C[C@]12CCC(=O)C=C1CC[C@@H]1[C@@H]2[C@@H](O)C[C@@]2(C)[C@H]1CC[C@]2(O)C(=O)COC(=O)CCC(=O)O", "GFP response vs DMSO, %": 108}
